- Tested on: Plasmodium falciparum
- Test Name: GSK_TCMDC: Inhibition of Plasmodium falciparum Dd2 in whole red blood cells, using parasite LDH activity as an index of growth. Test compounds present at 2uM
- Type: functional
The reader will find reported Inhibition values listed item by item below.
Write down the numeric answer in % and omit the unit.

# Molecule, Units Label, Inhibition
rows = [
    ("Cc1onc(-c2c(Cl)cccc2Cl)c1C(=O)N1CCc2cc3nccc(N4CCN5CCC[C@H]5C4)c3cc21", "%", 58),
    ("O=C(Cc1ccc[n+]([O-])c1)Nc1ccc(-c2cccc(-c3nc4cc(C(F)(F)F)ccc4[nH]3)c2)cc1", "%", 49),
    ("Nc1c2c(nc3ccccc13)C(=Cc1ccc(O)cc1)CCC2", "%", 6),
    ("N#Cc1cccc(CNC(=O)c2cccc(Nc3ccnc4ccc(F)cc34)c2)c1.O=C(O)C(F)(F)F", "%", 26),
    ("O=C(O)C(F)(F)F.O=S(=O)(NCCN1CCCC1)c1ccc(-c2cccc(CNCCc3cccs3)c2)cc1", "%", 30),
]

// Inhibition value for `COc1ccc2nccc([C@@H](O)CN3CCC(NC(=O)c4ccc(Cl)c([N+](=O)[O-])c4)CC3)c2c1` : 43

Measured Inhibition, `COc1cc(OC)cc(-c2nn(-c3ccc([N+](=O)[O-])cc3C#N)c(=S)n2Cc2ccco2)c1` : 100

GET /value?item= CCCC(=O)NC(NC(=S)Nc1ccc([N+](=O)[O-])cc1)C(Cl)(Cl)Cl (stereo not drawn) &field=Inhibition returns 14

###

- Tested on: Plasmodium falciparum
- Test Name: GSK_TCMDC: Inhibition of Plasmodium falciparum 3D7 in whole red blood cells, using parasite LDH activity as an index of growth. Test compounds present at 2uM
- Type: functional
Assay Readout: Inhibition (%)
Return type: number; implicit unit %.

Past entries and their recorded results:
# Query Smiles, Assay System, Inhibition, %
records = [
    ("COc1ccc2nc(/N=C3\\NC(c4ccccn4)(c4ccccn4)C(=O)N3C)[nH]c2c1", "Plasmodium falciparum", 99),
    ("Cl.O=C(CCCCCCc1ccccc1)Nc1ccc2nc3c(c(NCc4ccccc4)c2c1)CCCC3", "Plasmodium falciparum", 100),
    ("CC(C)c1ccc(Nc2nc(NCCc3c[nH]cn3)nc(NCc3ccccc3)n2)cc1", "Plasmodium falciparum", 98),
    ("COc1cc(C)nc2ccc(NC(=O)c3ccc(C(=O)Nc4ccc5nc(C)cc(OC)c5c4)cc3)cc12", "Plasmodium falciparum", 96),
]

Here's the next entry for you.
The measured Inhibition associated with `O=C(Nc1cccc(-c2ccc(-c3nc4ccccc4[nH]3)cc2)c1)c1ccncc1` reads 100

###

// reported Inhibition for each item listed
- System: Plasmodium falciparum
- Test Name: GSK_TCMDC: Inhibition of Plasmodium falciparum 3D7 in whole red blood cells, using parasite LDH activity as an index of growth. Test compounds present at 2uM
- Assay type: functional
Answer with a number only, understood to be in %.

# Compound, Assay Readout, Units Label, Recorded Number
data = [
    ("COc1ccc2nc3cc(Cl)ccc3c(NCCCO)c2c1", "Inhibition", "%", 100),
]

Inhibition recorded for this compound, `FC(F)(F)c1cccc(N=C(S)NN=Cc2ccccn2)c1` , is 100

// `COc1cc2nc(NCCn3ccnc3C)nc(NCCc3ccccc3)c2cc1OC` : Inhibition value = 99

The measured Inhibition associated with `O=C(Nc1cccc(CN2CCCN(Cc3cccc(Cl)c3)CC2)c1)c1ccc(Br)cc1.O=C(O)C(F)(F)F` reads 92

Lookup result for `CC(=O)Nc1cccc(C(=O)Nc2cccc(-c3cccc(-c4nc5cc(F)ccc5[nH]4)c3)c2)c1` ; measured Inhibition: 100

`COc1ccc(NC(=O)Nc2ccc(-c3ccccc3)cc2)cc1Cn1cnc(N2CCCNCC2)cc1=O.O=C(O)C(F)(F)F` yielded Inhibition of 100

###

- System: HepG2
- Test Name: GSK_TCMDC: Percent inhibition of human HepG2 cell line. Test compounds present at 10uM.
- Type: functional
Each record's Inhibition is compared with range 1 = under 2%, range 2 = from 2% up to 20%, range 3 = 20% and over to give its class.

# Compound, Discrete Label
records = [
    ("COc1cc(NC(=O)Nc2cccc3ccccc23)c(OC)cc1Cl", "range 1"),
    ("COc1cc(NC(=O)c2sc(-c3ccc(Cl)cc3)cc2NC(=O)N2CCCC2)ccc1OCCN1CCCC1", "range 3"),
    ("COc1cc2cc(Cc3cnc(N)nc3N)ccc2c(OC)c1OC.Cl", "range 1"),
    ("Cn1cncc1C(=O)Nc1cccc(-c2cccc(-c3nc4cc(F)ccc4[nH]3)c2)c1", "range 2"),
    ("O=[N+]([O-])c1ccc2c(c1)c1ccccc1n2Cc1ccccc1O", "range 1"),
    ("CN(C)C(=O)C(CC(=O)NCc1ccccc1Cl)N(C)C.CN(C)C(=O)CC(C(=O)NCc1ccccc1Cl)N(C)C.O (centres undefined)", "range 2"),
    ("CCCCCOc1ccc(N2C(N)=NC(N)=NC2(C)C)cc1.Cl", "range 3"),
    ("CCN(CC)Cc1cc(Nc2ccnc3cc(Cl)ccc23)ccc1O.Cl.Cl.Cl", "range 1"),
    ("N=C(N)Nc1nc(-c2cccc(NC(=O)NCC(c3ccccc3)c3ccccc3)c2)cs1", "range 1"),
    ("CN1CCN(CCc2ccc3nc(-c4csc(Cc5cc(Cl)ccc5OCc5ccccc5)n4)[nH]c3c2)CC1", "range 3"),
]

In plain terms, what class is COc1cc(OC)cc(C(=O)N2CCOC(CCN3CCC(c4ccccc4)CC3)(c3ccc(Cl)c(Cl)c3)C2)c1 (centres undefined) ?
range 2

# classify by Inhibition band: `CC(C)(C)CC(C)(C)c1ccc(O)c(C(=O)Nc2ccc([N+](=O)[O-])cc2)c1`
range 3

Hello team, could you let me know which band the following compound falls into: `CCCNCc1ccc(-c2ccc(CN(Cc3cnc(C)cn3)C(=O)/C=C/c3ccccc3C)cc2)nc1.O=C(O)C(F)(F)F`
range 2

###

# Inhibition per entry
- System: HepG2
- Test Name: GSK_TCMDC: Percent inhibition of human HepG2 cell line. Test compounds present at 10uM.
- Type: functional
# number only, unit % dropped from output

// recorded Inhibition for `N=C(N)c1ccc(NC(=O)c2cc(Sc3ccc(O)c(C(=O)Nc4ccc(C(=N)N)cc4)c3)ccc2O)cc1` : 11

Field Inhibition (entry CCC1CCCCN1S(=O)(=O)c1ccc(OC)c(N2CCN(C(=O)C(Cl)(Cl)Cl)CC2)c1 (centres undefined) ) reads 9

Lab note: measured Inhibition of `CN1CCC(N(Cc2ccc(-c3ccc(C(F)(F)F)cc3)cc2)C(=O)Cn2c(SCc3cccc(F)c3F)cc(=O)c3c2CCC3)CC1.O=C(O)C(O)C(O)C(=O)O` was 50

Noted for `CCCN1CCN(CCCNC(=O)c2cc3c(-c4ccc(Cl)cc4)nn(C)c3s2)CC1` : its Inhibition reads 46

###

- System: HepG2
- Test Name: GSK_TCMDC: Percent inhibition of human HepG2 cell line. Test compounds present at 10uM.
- Format: functional
Assay Readout: Inhibition (%)
Write it as a number; the unit % goes unstated.

Below are worked cases with known answers.
# Compound, Units Label, Inhibition
rows = [
    ("CCCCNS(=O)(=O)c1ccc(NC(=O)c2cc([N+](=O)[O-])ccc2Cl)cc1", "%", 12),
    ("Cc1cc(C)c(NC(=O)N[C@H]2CCN(CCCCCNC(=O)/C=C/c3ccc(Cl)c(Cl)c3)C2)c(C)c1", "%", 12),
    ("COc1cc(C2CCN(CCCCNC(=O)c3ccc(NC(=O)c4ccc(Cl)c(Cl)c4)cc3)CC2)ccc1OC(C)C", "%", 45),
    ("COc1cc2c(cc1S(=O)(=O)c1ccc(NC(=O)c3ccc4ccccc4c3)cc1)CCN(C)CC2", "%", 2),
    ("O=C(Nc1ccc(Cl)cc1)Nc1ccc(OCC(O)CN2CCCCC2)cc1 (centres undefined)", "%", 18),
    ("O=C(NCCc1ccccc1F)c1cc(Br)cc(N2CCN(c3ccncc3)CC2)c1.O=C(O)C(F)(F)F", "%", 29),
    ("CN1CCN(C(=O)CN2CCC3(CCC2=O)NC(=O)c2ccccc2O3)CC1 (centres undefined)", "%", 0),
    ("Cc1nc(N/C=C/c2ccc(O)cc2)cc(N2CCCC2)n1", "%", 0),
]

Now, please, on to the next compound.
// recorded Inhibition for `Cc1cc(NCCc2ccccc2)nc(NC(=N)Nc2ccc(Cl)cc2)n1` : 7

###

- System: HepG2
- Test Name: GSK_TCMDC: Percent inhibition of human HepG2 cell line. Test compounds present at 10uM.
- Type: functional
Assay Readout: Inhibition (%)
Number only, in %; omit the unit.

# Compound, Assay System, Inhibition / %
measured = [
    ("Nc1c2c(nc3ccc(NC(=O)c4ccccc4)cc13)CCCC2", "HepG2", 0),
    ("O=C(Nc1ccc(Cn2nc(Cl)c(N3CCNCC3)cc2=O)cc1)Nc1ccc(-c2ccccc2)cc1.O=C(O)C(F)(F)F", "HepG2", 99),
    ("CN(C)CCOc1cc(NC(=O)Nc2cccc3c(-c4ccncc4)cccc23)ccc1I.Cl", "HepG2", 20),
    ("O=C(O)/C=C\\C(=O)O.OCCN1CCN(C2Cc3ccc(F)cc3Sc3ccc(Cl)cc32)CC1 (centres undefined)", "HepG2", 56),
    ("Cc1cccc2nc(-c3ccc(-c4ccc(NC(=O)Nc5ccsc5)cc4)cc3)[nH]c12", "HepG2", 49),
]

Kindly note: HepG2, `Cc1cccc2nc(-c3ccc(-c4cccc(CNCc5ccccc5)c4)s3)[nH]c12.O=C(O)C(F)(F)F` , Inhibition value reported: 3

Observed Inhibition on HepG2, entry `O=C(Nc1nc(-c2cc(F)ccc2F)cs1)c1cncc(Br)c1` , equals 16

Query CCCCCCc1cc(OC)c(OC)cc1C(C)Nc1ccnc2cc(Cl)ccc12 (centres undefined) on HepG2; Inhibition returned: 6

Known value: HepG2 Inhibition of the compound `Cc1cccc(Cl)c1S(=O)(=O)Nc1cccc(CCN2CCC(N3CCCCC3)CC2)c1` equals 34

Readout Inhibition for `CCOC(=O)c1ccc(NC(=O)Nc2ccc(-c3ccc(-c4nc5cccc(C)c5[nH]4)s3)cc2)cc1` , test system HepG2, was 60
